test: In vitro for the binding affinity against sigma receptor by using [3H]DTG as radioligand in guinea pig cerebellum
pIC50: −log10 of the molar value.
Class assignment keyed on pIC50, ranges lowest = under 8, middle = from 8 up to 9, highest = 9 and over

Which category fits this record: "c1ccc(CCN2CC[C@H]3c4ccccc4CC[C@H]3C2)cc1"
highest

Same lookup for "c1ccc2c(c1)CC[C@H]1CN(CC3CC3)CC[C@@H]21" , please.
middle

Repeat for the following compound: "c1ccc2c(c1)CC[C@H]1CN(C3CCCCC3)CC[C@@H]21"
highest

And then "CN1CC[C@H]2c3ccccc3CC[C@H]2C1" , what is it?
lowest

Now give it for CCCCN1CCC2c3ccccc3CCCC2C1 (configuration not stated) too.
middle

Same read-out for "CCCCN1CC[C@H]2c3cc(C)cc(C)c3CC[C@H]2C1" ?
middle

Also need "c1ccc2c(c1)CC[C@H]1CN(Cc3ccc4ccccc4c3)CC[C@@H]21" , thanks.
lowest

Same for "CCCN1CC[C@H]2c3ccccc3CC[C@H]2C1"
middle

Can you check "c1ccc(CCCN2CC[C@H]3c4ccccc4CC[C@H]3C2)cc1" next?
middle

Request: "CCCCN1CCC2=C(Cc3ccccc32)C1"
middle

Cited source for all entries: BindingDB's records for doi:10.1021/jm00089a012
